# Test system: RARb homodimer (NR concentration 270 nM)
# METHOD_DESCRIPTION: PBM binding z-score (relative to random genomic background probes); higher = stronger binding; sequences stand for … in GC…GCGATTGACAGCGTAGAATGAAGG
Items are presented alongside their recorded PBM binding z-score.

{"SEQUENCE_TEXT": "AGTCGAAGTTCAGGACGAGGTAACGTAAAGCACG", "PBM binding z-score": 1.36}
{"SEQUENCE_TEXT": "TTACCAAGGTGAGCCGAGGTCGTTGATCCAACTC", "PBM binding z-score": 1.75}
{"SEQUENCE_TEXT": "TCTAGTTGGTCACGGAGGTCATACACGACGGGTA", "PBM binding z-score": 4.18}
{"SEQUENCE_TEXT": "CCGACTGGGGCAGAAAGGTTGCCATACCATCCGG", "PBM binding z-score": 0.631}
{"SEQUENCE_TEXT": "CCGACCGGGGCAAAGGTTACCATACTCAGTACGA", "PBM binding z-score": 2.34}
{"SEQUENCE_TEXT": "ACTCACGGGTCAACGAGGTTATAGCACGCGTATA", "PBM binding z-score": 3.5}
{"SEQUENCE_TEXT": "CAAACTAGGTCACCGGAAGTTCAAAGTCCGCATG", "PBM binding z-score": 4.69}
{"SEQUENCE_TEXT": "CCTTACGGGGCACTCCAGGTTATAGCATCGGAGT", "PBM binding z-score": 0.528}
{"SEQUENCE_TEXT": "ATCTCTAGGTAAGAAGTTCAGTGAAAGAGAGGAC", "PBM binding z-score": 1.85}
{"SEQUENCE_TEXT": "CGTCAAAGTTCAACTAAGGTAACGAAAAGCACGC", "PBM binding z-score": 4.12}
{"SEQUENCE_TEXT": "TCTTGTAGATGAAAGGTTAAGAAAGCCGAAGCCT", "PBM binding z-score": 1.17}
{"SEQUENCE_TEXT": "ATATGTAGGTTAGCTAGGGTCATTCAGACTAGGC", "PBM binding z-score": 3.17}
